Measured growth, listed per entry for reference.
System: DU-145 prostate
Experiment: NCI-60 one-dose screen, 48 h (100 = growth as untreated, 0 = no growth, -100 = all killed)
Settings: 10 µM unless noted
The panel holds about 83,000 compounds, 20% with a hit somewhere; the sample as a whole holds those more often.
Report the value in % with no unit label.

- MOLECULE: "CCC(=O)Nc1ccc(-c2nc(-c3cccc(O)c3)c(-c3ccnc(Br)c3)[nH]2)cc1"
  VALUE UNITS: "%"
  growth: 56
- MOLECULE: "CSc1ccc(/C(=N/N=C(N)N)c2ccccc2)cc1"
  VALUE UNITS: "%"
  growth: 15.2
- MOLECULE: "N#Cc1c(-c2cccs2)cc(-c2cnccn2)nc1SCC(=O)NNC(=S)Nc1ccc(F)cc1"
  VALUE UNITS: "%"
  growth: 109
- MOLECULE: "CCN1C(=O)N(CC)C2SC(N/N=C/c3ccccc3)=NC21 (centres undefined)"
  VALUE UNITS: "%"
  growth: 22.5
- MOLECULE: "C#C[C@]1(O)CC[C@H]2[C@@H]3CC=C4c5sc(Nc6cccc(Cl)n6)nc5CC[C@]4(C)[C@H]3CC[C@@]21C"
  VALUE UNITS: "%"
  growth: 24.5
- MOLECULE: "C#CCOc1ccccc1C(Nc1ccccc1)c1nnnn1C1CCCCC1 (centres undefined)"
  VALUE UNITS: "%"
  growth: 105

Q: Record request: growth value, item COC1=C(c2ccccc2)C(=O)C(OC)=C(c2ccccc2)C1=O
Result: 117

Q: Give its growth value. Item: C=CCn1c(SCC(=O)Nc2cccc(C(=O)/C=C/c3cccc([N+](=O)[O-])c3)c2)nc2ccccc2c1=O
Result: 94.1

Q: // returns reported growth for input Cc1ccc(NC(=O)c2ccc(CN3CCN(C)CC3)c(C(F)(F)F)c2)cc1Oc1ccc(-c2[nH]nc3ncnc(N)c23)cc1
Result: 95.3

====

Tested on: MALME-3M melanoma
Test: NCI-60 one-dose screen, 48 h (100 = growth as untreated, 0 = no growth, -100 = all killed)
Conditions: 10 µM unless noted
The panel holds about 83,000 compounds, 20% with a hit somewhere; the sample as a whole holds those more often.
Using growth as the sorting value, the categories are one: < 50%; two: ≥ 50% and < 90%; three: ≥ 90%

- MOLECULE: "COc1cc(-c2nc(SCc3ccc(C)cc3)[nH]c(=O)c2C#N)ccc1OCc1ccccc1"
  QUALITATIVE LABEL: "three"
- MOLECULE: "N#Cc1c(-c2cccs2)cc(-c2cnccn2)nc1SCC(=O)NNC(=S)Nc1ccc(F)cc1"
  QUALITATIVE LABEL: "three"
- MOLECULE: "CCc1ccc(NC(=O)N[C@@H](Cc2cccc(F)c2)C(=O)N[C@@H]2C(=O)N3CCC[C@H]3C(=O)N3CCCC[C@H]3C(=O)N[C@@H](C)C(=O)N3C[C@H](C)C[C@H]3C(=O)O[C@H]2C)c(F)c1"
  QUALITATIVE LABEL: "one"
- MOLECULE: "Nc1cc(F)ccc1NC(=O)c1ccc(NC(=O)C/C=C/c2cccnc2)cn1"
  QUALITATIVE LABEL: "one"
- MOLECULE: "COc1ccc([C@H]2[C@H](O)C(=O)N2c2cc(OC)c(OC)c(OC)c2)cc1O"
  QUALITATIVE LABEL: "two"

Q: Kindly state the category for this molecule: O=C(CN1CCN(c2cc(=O)n(-c3ccccc3)c3ccccc23)CC1)Nc1ccc([N+](=O)[O-])cc1
Result: two

Q: Band assignment needed for COc1ccc(C(=O)n2cc(C=O)c3ccccc32)cc1 please.
Result: three

Q: Which class holds C=C(C)[C@@H]1CC[C@]2(C)[C@H](CC=C3[C@@H]4CC(C)(C)CC[C@]4(C(=O)NCC#CCN4CCN(C)CC4)CC[C@]32C)[C@@]1(C)CCC#N ?
Result: one

Q: Looking at COc1cc2c3c(n(CCCNCC4CC4)c(=O)c2cc1OC)-c1cc2c(cc1C3=O)OCO2 , which class would you pick?
Result: two

Q: For this molecule, which bin applies? IP(CCCCCCCCCCSc1n(Cc2ccc3ccccc3c2)c(-c2ccccc2)c(-c2ccccc2)[n+]1Cc1ccc2ccccc2c1)(c1ccccc1)(c1ccccc1)c1ccccc1
Result: one

Q: Hey, which category is COc1ccc(Cn2cc3c(c2-c2ccccc2)CCCc2cnoc2-3)cc1 in, do you know?
Result: one

Cited source: PubChem BioAssay (NCI)
